# Test system: Sporothrix schenckii ATCC 32286
# protocol.text: growth inhibition relative to untreated control; higher = more growth inhibition (more antifungal activity), active = 80 or more; extreme values may be limits of the assay
# condition.context: 1 µM; 48 h
Class key for growth inhibition values: bucket 1: < 0.2%; bucket 2: ≥ 0.2% and < 8%; bucket 3: ≥ 8%

Which growth inhibition band matches `NC(=O)c1cc(-c2ccsc2)ccc1OCCOc1ccccc1` ?
bucket 3

Which growth inhibition band matches `O=C(NCc1ccco1)N1CCN(Cc2ccc(Cl)s2)CC1` ?
bucket 2

Which growth inhibition band matches `CNC(=O)CNc1nc(-c2ccccn2)nc2scc(-c3ccccc3)c12` ?
bucket 2

Which growth inhibition band matches `COc1ccc(Oc2ccc([C@@H](C)N(C)c3ncc4c(N)nc(N)nc4n3)cc2)cc1` ?
bucket 2

Which growth inhibition band matches `Cc1cc(Nc2ccc(C(F)(F)F)cc2)n2ccnc2n1` ?
bucket 2

Which growth inhibition band matches `Cn1ccnc1CNCCS(=O)(=O)c1cccc(Nc2ccc(-c3cccc(F)c3)cn2)c1` ?
bucket 1

Which growth inhibition band matches O=C1Nc2ccc(Br)cc2C12NCCc1c2[nH]c2ccccc12 (centres undefined) ?
bucket 2

Which growth inhibition band matches `CCN(CC)CCCN1CCN(C(=O)c2cccc(-c3noc(C(F)(F)F)n3)c2)CC1` ?
bucket 1

Which growth inhibition band matches `CN1CCN(S(=O)(=O)c2ccc(-c3ccc4c(Nc5ccc6nn[nH]c6c5)ccnc4c3)cc2)CC1` ?
bucket 2

Which growth inhibition band matches `Nc1ncc(-c2cn[nH]c2)cc1-c1nc2cc(Cl)cnc2[nH]1` ?
bucket 3

Which growth inhibition band matches `CC(C)n1nc(-c2cc3c(Cl)cccc3[nH]2)c2c(N)ncnc21` ?
bucket 3

Which growth inhibition band matches `Nc1cccnc1Nc1ccc(Cl)cc1` ?
bucket 1

Which growth inhibition band matches CC(=O)NCC1CN(c2ccc(-c3ccc(CNCc4cn[nH]n4)cc3)c(F)c2)C(=O)O1 (centres undefined) ?
bucket 1

Which growth inhibition band matches `COc1ccc(S(=O)(=O)Nc2ccc(CN3CCN(C(=O)c4cccc(C#N)c4)CC3)cc2)cc1` ?
bucket 2
